FYI, the data here is from patent US20230348603A1.

We begin with a simple list: items and their reported ELISA OD450.
Target Entity: T1, Human VSIG4-L-Fc (human)
T1 construct: also called hVSIG4-L-Fc; hVSIG4-L
T1 sequence (chain, as listed by the source limits assumed): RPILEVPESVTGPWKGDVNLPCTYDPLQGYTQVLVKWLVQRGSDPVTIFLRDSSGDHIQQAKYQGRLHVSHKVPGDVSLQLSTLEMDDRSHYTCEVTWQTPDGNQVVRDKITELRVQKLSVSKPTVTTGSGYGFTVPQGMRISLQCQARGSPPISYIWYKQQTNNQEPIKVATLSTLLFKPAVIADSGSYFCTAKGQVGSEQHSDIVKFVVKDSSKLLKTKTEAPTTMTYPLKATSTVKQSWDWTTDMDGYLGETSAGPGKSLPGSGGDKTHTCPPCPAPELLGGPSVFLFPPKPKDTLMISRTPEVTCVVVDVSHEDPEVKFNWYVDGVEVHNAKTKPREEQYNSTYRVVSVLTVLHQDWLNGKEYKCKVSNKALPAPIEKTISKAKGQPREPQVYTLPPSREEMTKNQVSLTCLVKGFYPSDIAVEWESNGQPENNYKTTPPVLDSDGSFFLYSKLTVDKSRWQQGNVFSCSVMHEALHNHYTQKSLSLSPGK
Test Description: ELISA, Fab P.E. 1:5 on coated antigen;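 note: mouse Fab P.E. samples in 1% skimmed milk PBS, bound to antigen-coated wells for 1 h at room temperature, read as absorbance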
Form entry: value (OD450) — number only.

Data point: 14D12 mouse Fab (periplasmic extract) (Fab, V domains shown, mouse Fab with C-terminal His6-c-myc tag) VH: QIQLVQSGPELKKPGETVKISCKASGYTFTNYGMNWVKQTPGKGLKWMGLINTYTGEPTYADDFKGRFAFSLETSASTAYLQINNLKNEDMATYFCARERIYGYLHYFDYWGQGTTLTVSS VL: DVVMTQTPASLAVSLGQRATISCKASQSVDYDGDSYMNWYQQKPGQPPKLLIYAASNLESGIPARFSGSGSGTDFTLNIHPVEEEDAATYYCQQSNEDPRTFGGGTKLEIK ; ELISA OD450 = 4.32

Item: 12A08 mouse Fab (periplasmic extract) (Fab, V domains shown, mouse Fab with C-terminal His6-c-myc tag) VH: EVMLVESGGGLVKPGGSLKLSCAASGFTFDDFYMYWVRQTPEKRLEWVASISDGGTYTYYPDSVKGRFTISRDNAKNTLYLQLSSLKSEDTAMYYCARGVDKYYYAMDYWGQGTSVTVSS VL: QILLTQSPAIMSASPGEKVTITCSASSSVSYMHWFQQKPGTSPKLWIYSTSNLASGVPARFSGSGSGTSYSLTISRMEAEDAATYYCQQRSSYPLTFGAGTKLELK | ELISA OD450: 4.45

Value of measured ELISA OD450 for the entry 15C03 mouse Fab (periplasmic extract) (Fab, V domains shown, mouse Fab with C-terminal His6-c-myc tag) VH: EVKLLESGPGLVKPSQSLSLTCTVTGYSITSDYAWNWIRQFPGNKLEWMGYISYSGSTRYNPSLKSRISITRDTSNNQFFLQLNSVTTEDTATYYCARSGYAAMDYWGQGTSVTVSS VL: ENVLTQSPAIMSASPGEKVTMTCRASSSVSSSYLHWYQQKSGASPKLWIYSTSNLASGVPARFSGSGSGTSYSLTISSVEAEDAATYYCQQYSGYPLTFGSGTKLEIK : 4.2
